system: HCC-78; experiment: relative viability (nuclei count vs DMSO), 5 days (fraction); higher = more cells survive; details: first compound 1 µM
Label Condition met when relative viability is strictly below 0.5; at or above that, label Condition not met.

Illustrative cases are given below, each with its answer.
compound	category label
O=c1cc(N2CCOCC2)oc2c(-c3cccc4c3sc3ccccc34)cccc12 + CS(=O)(=O)N1CCN(Cc2cc3nc(-c4cccc5[nH]ncc45)nc(N4CCOCC4)c3s2)CC1 [Pictilisib] (partner 1 µM)	Condition met
CCN(CC)CCCCNc1ncc2cc(-c3cc(OC)cc(OC)c3)c(NC(=O)NC(C)(C)C)nc2n1 + CS(=O)(=O)N1CCN(Cc2cc3nc(-c4cccc5[nH]ncc45)nc(N4CCOCC4)c3s2)CC1 [Pictilisib] (partner 1 µM)	Condition met
O=c1cc(N2CCOCC2)oc2c(-c3cccc4c3sc3ccccc34)cccc12 + O=C(c1cc(Cc2n[nH]c(=O)c3ccccc23)ccc1F)N1CCN(C(=O)C2CC2)CC1 [Olaparib] (partner 8 µM)	Condition not met

Problem: Please let me know if O=c1cc(N2CCOCC2)oc2c(-c3cccc4c3sc3ccccc34)cccc12 + Nc1ncn([C@H]2C[C@H](O)[C@@H](CO)O2)c(=O)n1 [Decitabine] (partner 2 µM) shows relative viability below 0.5.
Result: Condition not met
